# Tested on: antibodies in sera from SARS patients (sera 1a, 1b, 2, 6, 37, 62, London, SARS-yellow, SARS-green)
# Assay type: binding, human
Overview of reported Binding of serum 1a to looped/cyclic peptides of protein M of SARS-CoV Urbani across a group of sequences:
readout label: Binding of serum 1a to looped/cyclic peptides of protein M of SARS-CoV Urbani

>>> meas_value("QLLEQWNLVIGFLFL")
0.5
>>> meas_value("TVATSRTLSYYKLGA")
0.8
>>> meas_value("LACFVLAAVYRINWV")
0.7
>>> meas_value("ESELVIGAVIIRGHL")
0.6
>>> meas_value("VYRINWVTGGIAIAM")
0.7
>>> meas_value("ELVIGAVIIRGHLRM")
0.8
>>> meas_value("EQWNLVIGFLFLAWI")
0.7
>>> meas_value("LPKEITVATSRTLSY")
0.6
>>> meas_value("AIAMACIVGLMWLSY")
0.5
>>> meas_value("MLLQFAYSNRNRFLY")
0.8
>>> meas_value("LAAVYRINWVTGGIA")
0.8
>>> meas_value("KDLPKEITVATSRTL")
0.6
>>> meas_value("EITVATSRTLSYYKL")
0.6
>>> meas_value("NRYRIGNYKLNTDHA")
0.8
>>> meas_value("LLQFAYSNRNRFLYI")
0.7

====

Overview of reported Binding of serum SARS-yellow to looped/cyclic peptides of protein X2 of SARS-CoV Urbani across a group of sequences:
# Test system: antibodies in sera from SARS patients (sera 1a, 1b, 2, 6, 37, 62, London, SARS-yellow, SARS-green)
# Format: binding, human
readout label: Binding of serum SARS-yellow to looped/cyclic peptides of protein X2 of SARS-CoV Urbani

>>> meas_value("MMSRRRLLACLCKHK")
0.2
>>> meas_value("LVLKMLHSSSLTSLL")
0.4
>>> meas_value("TMTTVYHITVSQIQL")
0.3
>>> meas_value("YHITVSQIQLSLLKV")
0.4
>>> meas_value("YMAISPKFTTSLSLH")
0.4
>>> meas_value("LHSSSLTSLLKTHRM")
0.3
>>> meas_value("THITMTTVYHITVSQ")
0.5
>>> meas_value("LQTLVLKMLHSSSLT")
0.3
>>> meas_value("LKVTAFQHQNSKKTT")
0.2
>>> meas_value("QQWIQFMMSRRRLLA")
0.4
>>> meas_value("AFQHQNSKKTTKLVV")
0.5
>>> meas_value("QTLVLKMLHSSSLTS")
0.4
>>> meas_value("VSQIQLSLLKVTAFQ")
0.6
>>> meas_value("SLHKLLQTLVLKMLH")
0.5
>>> meas_value("RLLACLCKHKKVSTN")
0.4
>>> meas_value("ELLIQQWIQFMMSRR")
0.4
>>> meas_value("HITMTTVYHITVSQI")
0.5
>>> meas_value("TLVLKMLHSSSLTSL")
0.5

====

# System: antibodies in sera from SARS patients (sera 1a, 1b, 2, 6, 37, 62, London, SARS-yellow, SARS-green)
# Format: binding, human
readout label: Binding of serum 37 to linear peptide (PEPSCAN-ELISA)

>>> meas_value("LLLLDRLNQLESKVS")
0.7
>>> meas_value("NSTPGSSRGNSPARM")
1.2
>>> meas_value("GNFGDQDLIRQGTDY")
0.8
>>> meas_value("SRGGSQASSRSSSRS")
0.6

====

# System: control sera (pooled serum of ten healthy LUMC hospital workers; commercial negative donor pooled serum from the Dutch bloodbank)
# Type: binding, human
Mark Fulfilled only when Control serum LUMC linear peptides stays strictly below 0.6. Values equal to the cut-off are Not fulfilled.

>>> class_assignment("YHGAIKLDDKDPQFK")
"Not fulfilled"
>>> class_assignment("TDYKHWPQIAQFAPS")
"Not fulfilled"
>>> class_assignment("PPTEPKKDKKKKTDE")
"Not fulfilled"
>>> class_assignment("ADMDDFSRQLQNSMS")
"Not fulfilled"
>>> class_assignment("PQIAQFAPSASAFFG")
"Fulfilled"
>>> class_assignment("HWPQIAQFAPSASAF")
"Not fulfilled"
>>> class_assignment("VILLNKHIDAYKTFP")
"Not fulfilled"
>>> class_assignment("QRQKKQPTVTLLPAA")
"Not fulfilled"
>>> class_assignment("MSRIGMEVTPSGTWL")
"Not fulfilled"
>>> class_assignment("VTLLPAADMDDFSRQ")
"Fulfilled"
>>> class_assignment("PAADMDDFSRQLQNS")
"Not fulfilled"
>>> class_assignment("KLDDKDPQFKDNVIL")
"Not fulfilled"

====

# System: antibodies in sera from SARS patients (sera 1a, 1b, 2, 6, 37, 62, London, SARS-yellow, SARS-green)
# Assay type: binding, human
Overview of reported Binding of serum 62 to looped/cyclic peptides of protein X2 of SARS-CoV Urbani across a group of sequences:
readout label: Binding of serum 62 to looped/cyclic peptides of protein X2 of SARS-CoV Urbani

>>> meas_value("MLHSSSLTSLLKTHR")
0.5
>>> meas_value("SLYMAISPKFTTSLS")
0.5
>>> meas_value("YTQSTALQELLIQQW")
0.6
>>> meas_value("QQWIQFMMSRRRLLA")
0.8
>>> meas_value("LKTHRMCKYTQSTAL")
0.6
>>> meas_value("MSLYMAISPKFTTSL")
0.8
>>> meas_value("LSLLKVTAFQHQNSK")
0.3
>>> meas_value("LVLKMLHSSSLTSLL")
0.6
>>> meas_value("MMSRRRLLACLCKHK")
0.3
>>> meas_value("TMTTVYHITVSQIQL")
0.5
>>> meas_value("VSQIQLSLLKVTAFQ")
0.6
>>> meas_value("TMSLYMAISPKFTTS")
0.7
>>> meas_value("ACLCKHKKVSTNLCT")
0.4

====

# System: antibodies in sera from SARS patients (sera 1a, 1b, 2, 6, 37, 62, London, SARS-yellow, SARS-green)
# Format: binding, human
# Design: unit not given here
readout label: Binding of serum 1a to looped/cyclic peptides of protein N of SARS-CoV Urbani

>>> meas_value("KQRRPQGLPNNTASW")
0.4
>>> meas_value("DEAQPLPQRQKKQPT")
0.2
>>> meas_value("KGQQQQGQTVTKKSA")
0.2
>>> meas_value("ADMDDFSRQLQNSMS")
0.3
>>> meas_value("VTLLPAADMDDFSRQ")
0.3
>>> meas_value("PQGLPNNTASWFTAL")
0.5
>>> meas_value("PNNTASWFTALTQHG")
0.4
>>> meas_value("ATEGALNTPKDHIGT")
0.3
>>> meas_value("GGPTDSTDNNQNGGR")
0.3
>>> meas_value("LTYHGAIKLDDKDPQ")
0.3
>>> meas_value("PYGANKEGIVWVATE")
0.4
>>> meas_value("NTNSGPDDQIGYYRR")
0.5
>>> meas_value("EGIVWVATEGALNTP")
0.3
>>> meas_value("NGGRNGARPKQRRPQ")
0.3
>>> meas_value("EVTPSGTWLTYHGAI")
0.4
>>> meas_value("DQIGYYRRATRRVRG")
0.3
>>> meas_value("RVRGGDGKMKELSPR")
0.3
>>> meas_value("ATRRVRGGDGKMKEL")
0.2

====

# Tested on: antibodies in sera from SARS patients (sera 1a, 1b, 2, 6, 37, 62, London, SARS-yellow, SARS-green)
# Format: binding, human
Overview of reported Binding of serum SARS-green to linear peptides of protein X5 of SARS-CoV Urbani across a group of sequences:
readout label: Binding of serum SARS-green to linear peptides of protein X5 of SARS-CoV Urbani

>>> meas_value("GNTYSTAWLCALGKV")
0.6
>>> meas_value("VRYNTRGNTYSTAWL")
0.4
>>> meas_value("LCALGKVLPFHRWHT")
0.6
>>> meas_value("ILVRYNTRGNTYSTA")
0.5
>>> meas_value("RYNTRGNTYSTAWLC")
0.6
>>> meas_value("RGNTYSTAWLCALGK")
0.6

====

# Test system: antibodies in sera from SARS patients (sera 1a, 1b, 2, 6, 37, 62, London, SARS-yellow, SARS-green)
# Format: binding, human
Label met when Binding of serum SARS-green to linear peptides of protein M of SARS-CoV Urbani is at or above 0.4; otherwise label not met.

>>> class_assignment("TNILLNVPLRGTIVT")
"met"
>>> class_assignment("LAAVYRINWVTGGIA")
"not met"
>>> class_assignment("LQFAYSNRNRFLYII")
"not met"
>>> class_assignment("DIKDLPKEITVATSR")
"met"
>>> class_assignment("MESELVIGAVIIRGH")
"met"
>>> class_assignment("FLYIIKLVFLWLLWP")
"not met"
>>> class_assignment("RGTIVTRPLMESELV")
"not met"
>>> class_assignment("AIAMACIVGLMWLSY")
"not met"
>>> class_assignment("WLLWPVTLACFVLAA")
"not met"
>>> class_assignment("QLLEQWNLVIGFLFL")
"not met"
>>> class_assignment("YFVASFRLFARTRSM")
"not met"
>>> class_assignment("AAYNRYRIGNYKLNT")
"met"
>>> class_assignment("AMACIVGLMWLSYFV")
"not met"
>>> class_assignment("LACFVLAAVYRINWV")
"met"
>>> class_assignment("SGFAAYNRYRIGNYK")
"not met"
>>> class_assignment("LLQFAYSNRNRFLYI")
"met"
>>> class_assignment("GFAAYNRYRIGNYKL")
"not met"
>>> class_assignment("IVTRPLMESELVIGA")
"met"
>>> class_assignment("LMESELVIGAVIIRG")
"not met"
>>> class_assignment("LLNVPLRGTIVTRPL")
"not met"
>>> class_assignment("ELVIGAVIIRGHLRM")
"not met"
